target: Human KLK1 (Homo sapiens (Human), UniProt P06870); test: Determination of the IC50 for KLK1; type: biochemical; details: Human KLK1, 37° C., substrate H-DVal-Leu-Arg-AFC; Table 12
Sequence (P06870 25-262): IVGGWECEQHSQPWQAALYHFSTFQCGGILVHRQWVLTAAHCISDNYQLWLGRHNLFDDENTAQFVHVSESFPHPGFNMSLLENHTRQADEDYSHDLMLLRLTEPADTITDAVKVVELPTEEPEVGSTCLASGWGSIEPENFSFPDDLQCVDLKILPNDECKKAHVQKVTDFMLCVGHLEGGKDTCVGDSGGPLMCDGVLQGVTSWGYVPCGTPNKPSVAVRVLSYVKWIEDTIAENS
pIC50: −log10 of the molar value.
Catalogue of pIC50 values

• CN(CC(=O)O)[C@H](CC1CCCCC1)C(=O)N[C@@H](Cc1ccccc1)C(=O)NCc1ccc(CN)c(F)c1 = < 5.00
• CCOc1ccc(C[C@@H](NC)C(=O)N[C@@H](Cc2ccccc2)C(=O)NCc2ccc(CN)cc2)cc1 = 5.40
• CN(Cc1ccc(CN)cc1)C(=O)[C@H](Cc1ccccc1)NC(=O)[C@@H](CC1CCCCC1)NCC(=O)O = < 5.00
• NCc1ccc(CNC(=O)[C@H](Cc2ccccc2)NC(=O)[C@@H](CC2CCCCC2)NCCO)cc1 = < 5.00
• CCOc1ccc(C[C@@H](NC(=O)CC)C(=O)N2CC[C@H](c3ccccc3)[C@H]2C(=O)NCc2ccc(CN)cc2)cc1 = < 5.00

Missing value: pIC50, Human KLK1 (Homo sapiens (Human), UniProt P06870), entry CCCN[C@H](CC1CCCCC1)C(=O)N[C@@H](Cc1ccccc1)C(=O)NCc1ccc(CN)cc1 . Fill in?
< 5.00

Missing value: pIC50, Human KLK1 (Homo sapiens (Human), UniProt P06870), entry CCOc1ccc(C[C@@H](NC(=O)CC)C(=O)N[C@@H](Cc2ccccc2)C(=O)NCc2ccc(CN)c(F)c2)cc1 . Fill in?
< 6.00

Missing value: pIC50, Human KLK1 (Homo sapiens (Human), UniProt P06870), entry CN(CCO)[C@H](CC1CCCCC1)C(=O)N[C@@H](Cc1ccccc1)C(=O)NCc1ccc(CN)cc1 . Fill in?
< 5.00

Missing value: pIC50, Human KLK1 (Homo sapiens (Human), UniProt P06870), entry C[C@@H](NC(=O)c1ccccc1)C(=O)N[C@@H](Cc1ccccc1)C(=O)NCc1ccc(CN)cc1 . Fill in?
5.02

Missing value: pIC50, Human KLK1 (Homo sapiens (Human), UniProt P06870), entry CCOc1ccc(C[C@@H](N)C(=O)N[C@@H](Cc2ccccc2)C(=O)NCc2ccc(CN)cc2)cc1 . Fill in?
6.80

###

molecular target: Human plasma kallikrein (Homo sapiens (Human), UniProt P03952); experiment: Determination of the IC50 for plasma kallikrein; format: biochemical; conditions: 37° C., substrate H-DPro-Phe-Arg-AFC, read-out: IC50 (human PKal)
Sequence (P03952 391-638): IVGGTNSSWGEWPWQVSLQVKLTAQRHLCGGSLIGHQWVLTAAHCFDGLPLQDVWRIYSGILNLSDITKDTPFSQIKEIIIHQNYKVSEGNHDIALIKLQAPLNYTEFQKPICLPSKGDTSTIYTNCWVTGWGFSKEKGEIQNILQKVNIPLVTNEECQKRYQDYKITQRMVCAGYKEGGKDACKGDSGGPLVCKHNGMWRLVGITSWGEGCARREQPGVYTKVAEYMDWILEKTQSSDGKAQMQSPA
Sequence (P03952 20-390 partner): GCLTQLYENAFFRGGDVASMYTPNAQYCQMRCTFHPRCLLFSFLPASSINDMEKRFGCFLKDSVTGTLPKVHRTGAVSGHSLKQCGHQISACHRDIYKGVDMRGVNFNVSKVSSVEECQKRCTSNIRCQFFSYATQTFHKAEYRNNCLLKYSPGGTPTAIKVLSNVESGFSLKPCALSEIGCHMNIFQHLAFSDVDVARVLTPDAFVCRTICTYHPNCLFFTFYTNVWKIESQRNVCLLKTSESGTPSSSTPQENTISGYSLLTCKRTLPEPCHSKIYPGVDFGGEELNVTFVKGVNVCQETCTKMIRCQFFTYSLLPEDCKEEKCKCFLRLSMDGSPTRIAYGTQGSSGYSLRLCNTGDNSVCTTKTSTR
measurement label: IC50 (nM)

- CCOc1ccc(C[C@@H](NC(=O)Cc2ccccc2)C(=O)N[C@@H](Cc2ccccc2)C(=O)NCc2ccc(CN)cc2)cc1: 485

[A] CCOc1ccc(C[C@@H](NC(=O)c2cccs2)C(=O)N[C@@H](Cc2ccc(Cl)c(Cl)c2)C(=O)NCc2ccc(CN)cc2)cc1
[B] CCOc1ccc(C[C@@H](NC(=O)c2ccccc2C)C(=O)N[C@@H](Cc2cccnc2)C(=O)NCc2ccc(CN)cc2)cc1
[C] CCOc1ccc(C[C@@H](NC(=O)c2ccncc2)C(=O)N[C@@H](Cc2ccccc2)C(=O)NCc2ccc(CN)cc2)cc1
Ordering criterion: IC50; begin with the maximum. Sort and list the labels as requested.
C, A, B

###

Catalogue of pIC50 values
target: Human KLK1 (Homo sapiens (Human), UniProt P06870); assay: Determination of the IC50 for KLK1; assay type: biochemical; conditions: Human KLK1, 37° C., substrate H-DVal-Leu-Arg-AFC; Table 12
pIC50: −log10 of the molar value.

The cases that follow already have their pIC50 on record.
• CCOc1ccc(C[C@@H](N)C(=O)N[C@@H](Cc2ccccc2)C(=O)NCc2ccc(CN)c(F)c2)cc1 = < 6.00
• CCOc1ccc(C[C@@H](NC(=O)c2ccccc2)C(=O)N[C@@H](Cc2ccccc2)C(=O)NCc2ccc(CN)cc2)cc1 = < 5.00

I have this compound here, CCOc1ccc(C[C@H](C(=O)N[C@@H](Cc2ccccc2)C(=O)NCc2ccc(CN)cc2)N(C)C(=O)CC)cc1 , and I need its recorded pIC50.
5.02

// provenance: patent US9234000B2
